Items are presented alongside their recorded activation at 1.54 µM.
target: UniProt:P30613; assay: Luminescence Assay Protocol (Kinase Glo Plus), PKR(Wt/without FBP); assay type: biochemical; conditions: without FBP, compound 1.54 μM, read-out: I - AC50 LUM KGP woFBP % Fold @ 1.54 μM mean

Solved entries:
> print(dat)
                                   compound  endpoint.result
1  O=C([C@@H]1CCOC1)N1CC2=C(C1)CN(S(=O)(=O)c1ccc3ncsc3c1)C2       75 to 250%
2  O=C(C1CCCOC1)N1CC2=C(C1)CN(S(=O)(=O)c1cnc3c(c1)OCCO3)C2 (single isomer, unassigned)       75 to 250%
3  C[C@@H](O)[C@H](C(=O)N1CC2=C(C1)CN(S(=O)(=O)c1ccc(OC(F)F)cc1)C2)c1ccccc1 (racemic)      250 to 500%

Name the recorded activation at 1.54 µM of the compound listed here: O=C([C@H](CO)c1ccccc1)N1CC2=C(C1)CN(S(=O)(=O)c1ccc(OC(F)F)cc1)C2
250 to 500%

Name the recorded activation at 1.54 µM of the compound listed here: CC1(C)CNc2cc(S(=O)(=O)N3CC4=C(CN(C(=O)[C@H](CO)c5ccccc5)C4)C3)ccc2O1
75 to 250%

Name the recorded activation at 1.54 µM of the compound listed here: CC(C)(O)CC(=O)N1CC2=C(C1)CN(S(=O)(=O)c1ccc3occc3c1)C2
75 to 250%

Name the recorded activation at 1.54 µM of the compound listed here: O=C([C@H](CO)c1ccccc1)N1CC2=C(C1)CN(S(=O)(=O)c1ccc3ncsc3c1)C2
250 to 500%

Name the recorded activation at 1.54 µM of the compound listed here: CN1CCOc2ccc(S(=O)(=O)N3CC4=C(CN(C(=O)C(CO)c5ccccc5)C4)C3)cc21 (stereo not shown)
75 to 250%

Name the recorded activation at 1.54 µM of the compound listed here: CCC(CO)(CO)C(=O)N1CC2=C(C1)CN(S(=O)(=O)c1ccc3occc3c1)C2
75 to 250%

Name the recorded activation at 1.54 µM of the compound listed here: CN1CCOc2ccc(S(=O)(=O)N3CC4=C(CN(C(=O)C5CCOC5)C4)C3)cc21 (stereo not shown)
75 to 250%

Name the recorded activation at 1.54 µM of the compound listed here: O=C(CCO)N1CC2=C(C1)CN(S(=O)(=O)c1ccc3occc3c1)C2
250 to 500%

Name the recorded activation at 1.54 µM of the compound listed here: O=C([C@H]1CCOC1)N1CC2=C(C1)CN(S(=O)(=O)c1ccc3occc3c1)C2
75 to 250%

* * *

target: PKR(R510Q) (Homo sapiens, UniProt P30613, R510Q); assay: Luminescence Assay Protocol (Kinase Glo Plus), PKR(R510Q/without FBP); assay type: biochemical; details: PKRR510Q, without FBP, highest % fold increase at any concentration; read-out: E - AC50 LUM KGP woFBP MAX % FOLD mean
Sequence (P30613 whole entry R510Q): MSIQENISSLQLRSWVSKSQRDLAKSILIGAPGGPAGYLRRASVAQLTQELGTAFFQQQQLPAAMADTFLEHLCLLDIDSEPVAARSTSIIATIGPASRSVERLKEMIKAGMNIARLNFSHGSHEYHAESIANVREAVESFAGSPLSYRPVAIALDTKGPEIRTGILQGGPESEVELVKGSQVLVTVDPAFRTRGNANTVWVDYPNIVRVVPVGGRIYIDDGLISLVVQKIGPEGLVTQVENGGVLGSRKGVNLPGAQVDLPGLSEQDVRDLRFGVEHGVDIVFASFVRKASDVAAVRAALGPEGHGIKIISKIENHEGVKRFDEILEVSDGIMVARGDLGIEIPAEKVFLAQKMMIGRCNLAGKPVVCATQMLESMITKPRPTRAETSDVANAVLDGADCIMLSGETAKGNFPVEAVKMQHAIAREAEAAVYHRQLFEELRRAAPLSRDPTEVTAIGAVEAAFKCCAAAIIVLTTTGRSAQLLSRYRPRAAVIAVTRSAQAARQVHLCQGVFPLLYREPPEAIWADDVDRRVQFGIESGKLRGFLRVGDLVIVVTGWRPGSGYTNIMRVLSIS
RECORDED_METRIC: Emax

> print(dat)
                                   molecule                              assay.target  recorded.metric  endpoint.result
1  CC(C)(O)[C@@H](C(=O)N1CC2=C(C1)CN(S(=O)(=O)c1ccc(OC(F)F)cc1)C2)c1ccccc1  PKR(R510Q) (Homo sapiens, UniProt P30613, R510Q)             Emax      250 to 500%
2  O=C(CCO)N1CC2=C(C1)CN(S(=O)(=O)c1ccc(OC(F)F)cc1)C2  PKR(R510Q) (Homo sapiens, UniProt P30613, R510Q)             Emax      250 to 500%
3  COCCC(=O)N1CC2=C(C1)CN(S(=O)(=O)c1ccc3occc3c1)C2  PKR(R510Q) (Homo sapiens, UniProt P30613, R510Q)             Emax      250 to 500%
4  O=C(C1COCCN1)N1CC2=C(C1)CN(S(=O)(=O)c1ccc3ncsc3c1)C2 (stereo not shown)  PKR(R510Q) (Homo sapiens, UniProt P30613, R510Q)             Emax       75 to 250%
5  CN1CCOc2ccc(S(=O)(=O)N3CC4=C(CN(C(=O)C(CO)c5ccccc5)C4)C3)cc21 (stereo not shown)  PKR(R510Q) (Homo sapiens, UniProt P30613, R510Q)             Emax       75 to 250%

API: the following record is the query input.
Name the recorded Emax of the molecule listed here: O=C([C@H]1CCOC1)N1CC2=C(C1)CN(S(=O)(=O)c1ccc(OC(F)F)cc1)C2
250 to 500%

* * *

molecular target: PKR(R510Q) (Homo sapiens, UniProt P30613, R510Q); experiment: Luminescence Assay Protocol (Kinase Glo Plus), PKR(R510Q/without FBP); format: biochemical; details: PKRR510Q, without FBP, compound 1.54 μM
RECORDED_METRIC: F - AC50 LUM KGP woFBP % Fold @ 1.54 μM mean

> print(dat)
                                   compound           endpoint.result
1  O=C(C1CCCOC1)N1CC2=C(C1)CN(S(=O)(=O)c1ccc3c(c1)NCCO3)C2 (single isomer, unassigned) [Example 33]  ++ (>75% and ≤250% (++))
2  O=C(C(CO)c1ccccn1)N1CC2=C(C1)CN(S(=O)(=O)c1cnc3c(c1)OCCO3)C2 (single isomer, unassigned)  ++ (>75% and ≤250% (++))
3  O=C(C1CCCOC1)N1CC2=C(C1)CN(S(=O)(=O)c1ccccn1)C2 (single isomer, unassigned)  ++ (>75% and ≤250% (++))

* * *

target: UniProt:P30613; test: Luminescence Assay Protocol (Kinase Glo Plus), PKR(Wt/without FBP); type: biochemical; settings: without FBP, gmean, read-out: G - AC50 LUM KGP woFBP AC50 μM gmean
RECORDED_METRIC: AC50

Solved entries:
> print(dat)
                                    molecule  endpoint.result
 1  CC(C)(O)CC(=O)N1CC2=C(C1)CN(S(=O)(=O)c1ccc3occc3c1)C2      0.1 to 1 µM
 2  O=C(C1CCCOC1)N1CC2=C(C1)CN(S(=O)(=O)c1ccc3ncsc3c1)C2 (stereo not shown)      0.1 to 1 µM
 3  Cc1nc2ccc(S(=O)(=O)N3CC4=C(CN(C(=O)C(C)(C)CO)C4)C3)cc2o1       1 to 40 µM
 4  O=C(C1CCCOC1)N1CC2=C(C1)CN(S(=O)(=O)c1ccc3c(c1)NCCO3)C2 (single isomer, unassigned) [Example 34]         ≤ 0.1 µM
 5  CN1CCOc2ccc(S(=O)(=O)N3CC4=C(CN(C(=O)C(CO)c5ccccc5)C4)C3)cc21 (stereo not shown)         ≤ 0.1 µM
 6  O=C(C(CO)c1ccccc1)N1CC2=C(C1)CN(S(=O)(=O)c1ccc3occc3c1)C2 (stereo not shown)         ≤ 0.1 µM
 7  COCC1(C(=O)N2CC3=C(C2)CN(S(=O)(=O)c2ccc4c(c2)NCCO4)C3)CC1      0.1 to 1 µM
 8  CC(C)(CO)C(=O)N1CC2=C(C1)CN(S(=O)(=O)c1ccc3ncsc3c1)C2      0.1 to 1 µM
 9  O=C([C@@H]1CCOC1)N1CC2=C(C1)CN(S(=O)(=O)c1ccc3occc3c1)C2      0.1 to 1 µM
10  O=C(C(CO)c1ccccc1)N1CC2=C(C1)CN(S(=O)(=O)c1ccc(OC(F)F)cc1)C2 (stereo not shown)         ≤ 0.1 µM

API: the following record is the query input.
Name the recorded AC50 of the molecule listed here: CC1(C)CNc2cc(S(=O)(=O)N3CC4=C(CN(C(=O)[C@H](CO)c5ccccc5)C4)C3)ccc2O1
≤ 0.1 µM

* * *

Target: PKR(R510Q) (Homo sapiens, UniProt P30613, R510Q)
Experiment: Luminescence Assay Protocol (Kinase Glo Plus), PKR(R510Q/without FBP)
Type: biochemical
Conditions: PKRR510Q, without FBP, gmean; read-out: D - AC50 LUM KGP woFBP AC50 μM gmean
Procedure: Example 47: PKR(Wt/without FBP), PKR(G332S/with FBP), PKR(R510Q/without FBP) The phosphorylation of Adenosine-5′-diphosphate (ADP) by various mutants of PKR was determined by the Kinase Glo Plus Assay (Promega) in the presence or absence of FBP [D-Fructose-1,6-diphosphate; BOC Sciences, CAS: 81028-91-3] as follows. […] Enzyme and PEP [Phospho(enol) pyruvic acid] were added at 2× to all wells of an assay-ready plate containing serial dilutions of test compounds or DMSO vehicle. […]
Items are presented alongside their recorded AC50.

Name the recorded AC50 of the compound listed here: O=C([C@H](CO)c1ccccc1)N1CC2=C(C1)CN(S(=O)(=O)c1ccc3ncsc3c1)C2
≤ 0.1 µM

Name the recorded AC50 of the compound listed here: COCCC(=O)N1CC2=C(C1)CN(S(=O)(=O)c1ccc3c(c1)N(C)CCO3)C2
1 to 40 µM

Name the recorded AC50 of the compound listed here: O=C(C1COc2ccccc21)N1CC2=C(C1)CN(S(=O)(=O)c1ccc3ncsc3c1)C2 (stereo not shown)
1 to 40 µM

Name the recorded AC50 of the compound listed here: C[C@@H](O)[C@@H](C(=O)N1CC2=C(C1)CN(S(=O)(=O)c1ccc(OC(F)F)cc1)C2)c1ccccc1 (racemic)
≤ 0.1 µM
